tgt: SGK2 (human) (UniProt Q9HBY8)
Sequence (Q9HBY8 whole entry, looked up): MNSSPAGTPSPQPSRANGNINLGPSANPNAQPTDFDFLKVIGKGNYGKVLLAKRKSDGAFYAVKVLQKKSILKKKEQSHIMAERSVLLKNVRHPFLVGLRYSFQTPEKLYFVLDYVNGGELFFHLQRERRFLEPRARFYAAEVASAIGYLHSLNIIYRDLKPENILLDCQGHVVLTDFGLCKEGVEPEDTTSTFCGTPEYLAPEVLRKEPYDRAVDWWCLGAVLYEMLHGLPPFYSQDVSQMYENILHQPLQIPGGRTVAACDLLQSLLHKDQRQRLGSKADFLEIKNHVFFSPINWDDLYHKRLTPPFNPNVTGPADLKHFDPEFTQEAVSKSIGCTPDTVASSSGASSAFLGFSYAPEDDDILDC
method-description: split-luciferase competition binding
assay-setup: compound 10.0 µM
endpoint-name: inhibition (%)

• CCN(CC)CCCCN1c2ccccc2Oc2ccc(Cl)cc21 = 0
• O=c1cc(N2CCOCC2)oc2c(-c3ccccc3)cccc12 = 0
• NC(=O)c1ccc(-c2nc(-c3ccccn3)c(-c3ccc4c(c3)OCO4)[nH]2)cc1 = 0
• O=c1cc(N2CCOCC2)oc2c1ccc1ccccc12 = 0
• COc1cc2ncn(-c3cc(OCc4ccccc4C(F)(F)F)c(C(N)=O)s3)c2cc1OC = 4
• CC(C)(C)n1nc(-c2ccc(Cl)cc2)c2c(N)ncnc21 = 0
• Nc1ncnc2[nH]nc(Nc3ccc(F)cc3)c12 = 9
• Cc1[nH]c(/C=C2\C(=O)Nc3ccc(S(=O)(=O)Cc4c(Cl)cccc4Cl)cc32)c(C)c1C(=O)N1CCC[C@@H]1CN1CCCC1 = 2
• CN(C)CCCn1cc(C2=C(c3c[nH]c4ccccc34)C(=O)NC2=O)c2ccccc21 = 0
• CC1=C(O)C(=O)[C@@H]2OC2C1=O (some centres not stated) = 0
• O=S(=O)(c1cccc2c(O)nccc12)N1CCCNCC1 = 0
• O=C(c1ccc(Nc2nccc(-c3cc4ccccc4s3)n2)cc1)N1CCC(N2CCCC2)CC1 = 69

###

Each record here notes measured inhibition.
tgt: PRKX (human)
method-description: split-luciferase competition binding
assay-setup: compound 10.0 µM
endpoint-name: inhibition (%)

- O=C1Nc2ccc(I)cc2/C1=C/c1cc(Br)c(O)c(Br)c1: 11
- O=C1NC(=O)c2c1c1c3ccccc3[nH]c1c1[nH]c3ccccc3c21: 62
- Cc1ccc(-c2nn(C(C)(C)C)c3ncnc(N)c23)cc1: 0
- O=S(=O)(c1cccc2c(Cl)cccc12)N1CCCNCC1: 25
- CC(C)N(CCC(=O)c1ccc2ccccc2c1)Cc1ccccc1: 0
- Cn1cc(C2=C(c3cn(CCCSC(=N)N)c4ccccc34)C(=O)NC2=O)c2ccccc21: 32
- N#C/C(=C\c1ccc(O)c(O)c1)C(=O)NCc1ccccc1: 0
- N#C/C(=C\c1ccc(O)c(O)c1)C(N)=S: 0
- CS(=O)c1ccc(-c2nc(-c3ccc(F)cc3)c(-c3ccncc3)[nH]2)cc1 (stereo unspecified): 0
- CC(C)(C)n1nc(-c2ccc(Cl)cc2)c2c(N)ncnc21: 0
- CC(C)(C)n1nc(-c2cccc3ccccc23)c2c(N)ncnc21: 9

###

tgt: PRKCI (human)
method-description: split-luciferase competition binding
assay-setup: compound 10.0 µM
endpoint-name: inhibition (%)

* Nc1ccc(-c2cccc3c(=O)cc(N4CCOCC4)oc23)cc1 | 0
* CCN(CC)CCNC(=O)c1c(C)[nH]c(/C=C2\C(=O)Nc3ccc(F)cc32)c1C | 22
* O=S(=O)(NCCNC/C=C/c1ccc(Br)cc1)c1cccc2cnccc12 | 80
* O=S(=O)(c1cccc2cnccc12)N1CCCNCC1 | 38
* Nc1ncnc2[nH]nc(Nc3ccc(F)cc3)c12 | 0
* CO[C@@H]1[C@H](N(C)C(=O)c2ccccc2)C[C@H]2O[C@]1(C)n1c3ccccc3c3c4c(c5c6ccccc6n2c5c31)C(=O)NC4 | 65
* CCN(CC)CCCCN1c2ccccc2Oc2ccc(Cl)cc21 | 2
* NC(=O)c1sc(-c2ccsc2)cc1N | 0
* CC(C)(C)n1nc(-c2cccc3ccccc23)c2c(N)ncnc21 | 0
* O=C1NC(=O)c2c1c1c3ccccc3[nH]c1c1[nH]c3ccccc3c21 | 0
* Cc1ccccc1C(=O)c1ccc(Nc2ccc(Br)cc2N)cc1Cl | 0
* CC(C)[C@H](CO)Nc1nc(Nc2cccc(Cl)c2)c2ncn(C(C)C)c2n1 | 0
* O=C1Nc2ccc(I)cc2/C1=C/c1cc(Br)c(O)c(Br)c1 | 0
* COc1cc2c(Nc3ccc(NC(=O)c4ccccc4)cc3)ncnc2cc1OCCCN1CCOCC1 | 0
* NC(=O)c1ccc(-c2nc(-c3ccccn3)c(-c3ccc4c(c3)OCCO4)[nH]2)cc1 | 1
* C=CC(=O)c1ccc2ccccc2c1 | 0
* C/C(O)=C(\C#N)C(=O)Nc1cc(Br)ccc1Br | 0
* CC1=C(O)C(=O)[C@@H]2OC2C1=O (some centres not stated) | 0
* NC(=O)Nc1sc(-c2ccc(F)cc2)cc1C(N)=O | 0
* CC(C)[C@H](CO)Nc1nc(Nc2ccc(C(=O)O)c(Cl)c2)c2ncn(C(C)C)c2n1 | 0
* O=C(NC(NC(=S)Nc1ccc(F)c([N+](=O)[O-])c1)C(Cl)(Cl)Cl)C(c1ccccc1)c1ccccc1 (configuration not stated) | 0
* N#C/C(=C\c1ccc(O)c(O)c1)C(N)=S | 0

###

tgt: RPS6KA3 KD1 (human)
method-description: split-luciferase competition binding
assay-setup: compound 10.0 µM
endpoint-name: inhibition (%)

• O=C1NC(=O)c2cc(Nc3ccc(F)cc3)c(Nc3ccc(F)cc3)cc21 = 0
• CC1=C(O)C(=O)[C@@H]2OC2C1=O (stereo partly specified) = 0
• Cn1cc(C2=C(c3ccc(Cl)cc3Cl)C(=O)NC2=O)c2ccccc21 = 0
• CC(C)(C)n1nc(-c2ccc(Cl)cc2)c2c(N)ncnc21 = 6
• C=CC(=O)c1ccc2ccccc2c1 = 0
• CC[C@@H](CO)Nc1nc(NCc2ccccc2)c2ncn(C(C)C)c2n1 = 0

###

tgt: PRKCQ (human) (UniProt Q04759)
Sequence (Q04759 whole entry, looked up): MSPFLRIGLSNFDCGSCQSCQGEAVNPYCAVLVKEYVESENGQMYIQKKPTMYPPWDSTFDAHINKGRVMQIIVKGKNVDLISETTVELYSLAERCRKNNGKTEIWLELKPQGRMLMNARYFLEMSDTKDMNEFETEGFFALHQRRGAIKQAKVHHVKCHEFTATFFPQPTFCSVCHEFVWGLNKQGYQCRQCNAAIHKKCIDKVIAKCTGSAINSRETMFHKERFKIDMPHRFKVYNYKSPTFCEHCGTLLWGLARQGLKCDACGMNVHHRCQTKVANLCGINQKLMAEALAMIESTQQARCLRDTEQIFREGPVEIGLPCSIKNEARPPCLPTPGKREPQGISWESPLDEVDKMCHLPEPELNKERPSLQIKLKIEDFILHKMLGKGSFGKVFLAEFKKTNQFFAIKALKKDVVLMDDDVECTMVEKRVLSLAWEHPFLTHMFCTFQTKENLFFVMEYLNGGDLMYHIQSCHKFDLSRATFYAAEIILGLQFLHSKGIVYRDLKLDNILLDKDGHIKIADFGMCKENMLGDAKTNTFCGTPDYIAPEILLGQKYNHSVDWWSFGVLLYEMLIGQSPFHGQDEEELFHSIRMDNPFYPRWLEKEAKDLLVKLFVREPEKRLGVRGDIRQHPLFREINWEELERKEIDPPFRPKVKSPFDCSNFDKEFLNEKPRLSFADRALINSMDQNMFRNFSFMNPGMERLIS
method-description: split-luciferase competition binding
assay-setup: compound 10.0 µM
Each record here notes measured inhibition.
endpoint-name: inhibition (%)

• N#C/C(=C\c1ccc(O)c(O)c1)C(N)=S = 0
• COc1cc2ncnc(Nc3ccc(Cl)cc3F)c2cc1OC = 7
• CC(C)[C@H](CO)Nc1nc(Nc2cc(N)cc(Cl)c2)c2ncn(C(C)C)c2n1 = 29
• O=c1cc(N2CCOCC2)oc2c(-c3ccccc3)cccc12 = 0
• CN(C)CCCn1cc(C2=C(c3c[nH]c4ccccc34)C(=O)NC2=O)c2ccccc21 = 69
• O=c1cc(N2CCOCC2)nc2c3ccccc3ccn12 = 0
• Fc1ccc(Cl)cc1-c1nc(Nc2ccncc2)c2nccnc2n1 = 51
• CN1CCC(Nc2ncc3ncnc(Nc4ccc(F)c(Cl)c4)c3n2)CC1 = 0
• Cc1cc(I)ccc1Nc1c(C(=O)NOCC2CC2)cc(F)c(F)c1F = 1
• CS(=O)c1ccc(-c2nc(-c3ccc(F)cc3)c(-c3ccncc3)[nH]2)cc1 (stereo unspecified) = 0
• O=S(=O)(c1cccc2c(Cl)cccc12)N1CCCNCC1 = 0

###

tgt: PRKCQ (human)
method-description: split-luciferase competition binding
assay-setup: compound 10.0 µM
endpoint-name: inhibition (%)

- O=S(=O)(c1cccc2cnccc12)N1CCCNCC1: 1
- CC(C)[C@H](CO)Nc1nc(Nc2cccc(Cl)c2)c2ncn(C(C)C)c2n1: 0
- NC(=O)c1ccc(-c2nc(-c3ccccn3)c(-c3ccc4c(c3)OCCO4)[nH]2)cc1: 1
- C=CC(=O)c1ccc2ccccc2c1: 0
- CC(=O)c1c(O)c(C)c(O)c(Cc2c(O)c3c(c(C(=O)/C=C/c4ccccc4)c2O)OC(C)(C)C=C3)c1O: 9

###

tgt: PRKCD (human) (UniProt Q05655)
Sequence (Q05655 whole entry, looked up): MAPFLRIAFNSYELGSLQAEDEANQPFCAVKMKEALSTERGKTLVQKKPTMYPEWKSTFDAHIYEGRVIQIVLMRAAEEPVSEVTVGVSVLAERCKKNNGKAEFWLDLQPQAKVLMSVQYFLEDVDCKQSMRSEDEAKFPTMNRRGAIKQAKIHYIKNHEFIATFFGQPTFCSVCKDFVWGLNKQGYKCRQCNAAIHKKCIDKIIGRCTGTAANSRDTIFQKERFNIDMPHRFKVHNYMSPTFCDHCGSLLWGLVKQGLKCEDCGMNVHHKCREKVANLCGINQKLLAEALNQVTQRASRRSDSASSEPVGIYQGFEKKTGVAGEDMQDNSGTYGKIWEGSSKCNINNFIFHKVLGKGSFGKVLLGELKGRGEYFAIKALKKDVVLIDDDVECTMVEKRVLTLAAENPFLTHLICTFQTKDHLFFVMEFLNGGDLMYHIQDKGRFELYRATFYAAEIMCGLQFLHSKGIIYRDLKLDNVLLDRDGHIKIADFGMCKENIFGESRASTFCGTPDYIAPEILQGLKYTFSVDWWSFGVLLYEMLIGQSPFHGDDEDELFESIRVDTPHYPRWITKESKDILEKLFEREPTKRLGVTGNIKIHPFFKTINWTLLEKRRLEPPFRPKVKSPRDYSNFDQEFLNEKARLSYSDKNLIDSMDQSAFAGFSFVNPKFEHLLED
method-description: split-luciferase competition binding
assay-setup: compound 10.0 µM
endpoint-name: inhibition (%)

• NC(=O)c1ccc(-c2nc(-c3ccccn3)c(-c3ccc4c(c3)OCCO4)[nH]2)cc1 = 0
• O=c1cc(N2CCOCC2)nc2c3ccccc3ccn12 = 0
• NC(=O)Nc1sc(-c2ccc(F)cc2)cc1C(N)=O = 0
• Cn1cnc2c(NCc3ccccc3)nc(NCCO)nc21 = 3
• O=S(=O)(NCCNC/C=C/c1ccc(Br)cc1)c1cccc2cnccc12 = 10
• CO[C@@H]1[C@H](N(C)C(=O)c2ccccc2)C[C@H]2O[C@]1(C)n1c3ccccc3c3c4c(c5c6ccccc6n2c5c31)C(=O)NC4 = 52
• Cc1[nH]c(/C=C2\C(=O)Nc3ccc(S(=O)(=O)Cc4c(Cl)cccc4Cl)cc32)c(C)c1C(=O)N1CCC[C@@H]1CN1CCCC1 = 0
• COc1cc2ncnc(Nc3ccc(F)c(Cl)c3)c2cc1OCCCN1CCOCC1 = 0
• O=C1NC(=O)C(c2ccccc2[N+](=O)[O-])=C1Nc1ccc(O)c(Cl)c1 = 9
• NC(=O)c1sc(-c2ccsc2)cc1N = 0
• Cc1cc2nc3c(=O)[nH]c(=O)nc-3n(C)c2cc1C=O = 31
• O=C1NC(=O)c2c1c1c3ccccc3n3c1c1c2c2ccccc2n1C1CCC3O1 = 58

###

Each record here notes measured inhibition.
tgt: PDPK1 (human)
method-description: split-luciferase competition binding
assay-setup: compound 10.0 µM
endpoint-name: inhibition (%)

• Nc1ncnc2[nH]nc(Nc3ccc(F)cc3)c12 = 0
• COc1cc2ncnc(Nc3ccc(F)c(Cl)c3)c2cc1OCCCN1CCOCC1 = 2
• CC[C@@H](CO)Nc1nc(NCc2ccccc2)c2ncn(C(C)C)c2n1 = 0
• N#C/C(=C\c1ccc(O)c(O)c1)C(N)=S = 0
• O=c1cc(N2CCOCC2)oc2c1ccc1ccccc12 = 0
• O=S(=O)(c1cccc2cnccc12)N1CCCNCC1 = 0
• c1ccc(-c2n[nH]cc2-c2ccnc3ccccc23)nc1 = 0
• CN1CCC(Nc2ncc3ncnc(Nc4ccc(F)c(Cl)c4)c3n2)CC1 = 0
• Cc1ccc(NC(=O)c2cccc(N(C)C)c2)cc1NC(=O)c1ccc(O)cc1 = 0
• CC(C)(C)n1nc(-c2cccc3ccccc23)c2c(N)ncnc21 = 0
• O=C1Nc2ccc(I)cc2/C1=C/c1cc(Br)c(O)c(Br)c1 = 0
• COc1cc2ncnc(Nc3ccc(Cl)cc3F)c2cc1OC = 0
• Oc1ccc(-c2nc(-c3ccc(F)cc3)c(-c3ccncc3)[nH]2)cc1 = 0
• O=C1NC(=O)c2c1c1c3ccccc3[nH]c1c1[nH]c3ccccc3c21 = 22
• Fc1ccc(Cl)cc1-c1nc(Nc2ccncc2)c2nccnc2n1 = 12
• Cc1ccc(-c2nn(C(C)(C)C)c3ncnc(N)c23)cc1 = 0
• O=c1cc(N2CCOCC2)nc2c3ccccc3ccn12 = 0
• CCN(CC)CCNC(=O)c1c(C)[nH]c(/C=C2\C(=O)Nc3ccc(F)cc32)c1C = 10
• O=c1cc(N2CCOCC2)oc2c(-c3ccccc3)cccc12 = 0
• C=CC(=O)c1ccc2ccccc2c1 = 0
• NC(=O)c1ccc(-c2nc(-c3ccccn3)c(-c3ccc4c(c3)OCCO4)[nH]2)cc1 = 0
• CC(C)[C@H](CO)Nc1nc(Nc2cccc(Cl)c2)c2ncn(C(C)C)c2n1 = 0
• O=C1NC(=O)c2c1c1c3ccccc3n3c1c1c2c2ccccc2n1C1CCC3O1 = 29
• O=S(=O)(NCCNC/C=C/c1ccc(Br)cc1)c1cccc2cnccc12 = 0
• C/C(O)=C(\C#N)C(=O)Nc1cc(Br)ccc1Br = 0
• Brc1c(Br)c(Br)c2[nH]nnc2c1Br = 0
• Nc1ccc(-c2cccc3c(=O)cc(N4CCOCC4)oc23)cc1 = 0
• CO[C@@H]1[C@H](N(C)C(=O)c2ccccc2)C[C@H]2O[C@]1(C)n1c3ccccc3c3c4c(c5c6ccccc6n2c5c31)C(=O)NC4 = 10
• COc1nccc(-c2c(-c3ccc(F)cc3)ncn2[C@H]2CC[C@H](O)CC2)n1 = 0
• COc1cc2c(Nc3ccc(NC(=O)c4ccccc4)cc3)ncnc2cc1OCCCN1CCOCC1 = 0
• CN(C)CCCn1cc(C2=C(c3c[nH]c4ccccc34)C(=O)NC2=O)c2ccccc21 = 0
• Cc1cc(I)ccc1Nc1c(C(=O)NOCC2CC2)cc(F)c(F)c1F = 0
• COc1cc2nccc(Oc3ccc(NC(=O)Nc4ccc(F)cc4F)c(F)c3)c2cc1OC = 0
• CC(C)[C@H](CO)Nc1nc(Nc2ccc(C(=O)O)c(Cl)c2)c2ncn(C(C)C)c2n1 = 0
• CN1CC[C@H](c2c(O)cc(O)c3c(=O)cc(-c4ccccc4Cl)oc23)[C@H](O)C1 = 0
• NC(=O)Nc1sc(-c2ccc(F)cc2)cc1C(N)=O = 0
• CC(C)(C)n1nc(-c2ccc(Cl)cc2)c2c(N)ncnc21 = 0
• CCN(CC)CCCCN1c2ccccc2Oc2ccc(Cl)cc21 = 0
• O=C1NC(=O)c2cc(Nc3ccc(F)cc3)c(Nc3ccc(F)cc3)cc21 = 10
• Cc1ccccc1C(=O)c1ccc(Nc2ccc(Br)cc2N)cc1Cl = 0
• N#C/C(=C(/N)Sc1ccc(N)cc1)c1ccccc1C(F)(F)F = 0
• NC(=O)c1sc(-c2ccsc2)cc1N = 0
• O=C(Nc1cc(C(F)(F)F)cc(C(F)(F)F)c1)c1cc(Cl)ccc1O = 0
• Cc1cc2nc3c(=O)[nH]c(=O)nc-3n(C)c2cc1C=O = 0
• CC1=C(O)C(=O)[C@@H]2OC2C1=O (stereo not given in full) = 2

The origin of these recorded values is the kinase profiling compilation of Christmann-Franck et al. (2016).
